target-desc: T1, human LAIR1 extracellular domain (ECD) protein with 6 HIS tag at the C-terminus (human, UniProt Q6GTX8 22-165)
T1 construct: Produced recombinantly in HEK293 cells; the whole entry is named here; also called LAIR1 ECD; LAIR1-ECD
T1 chain: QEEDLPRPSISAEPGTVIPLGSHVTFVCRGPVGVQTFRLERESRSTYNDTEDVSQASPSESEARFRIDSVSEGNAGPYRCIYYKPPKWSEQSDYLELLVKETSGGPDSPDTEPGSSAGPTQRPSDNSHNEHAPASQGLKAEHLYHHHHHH
method-description: ELISA, LAIR1 ECD coated
EC50 (read off the curve) listing for selected binders.

LA-89 (antibody, V domains shown, Rabbit monoclonal IgG; also called mAb LA-89) VH: QSVKESGGRLVTPGTPLTLTCTVSGFSLSSNAISWVRQAPGKGLEWIGYIYGDGRTFYASWAKGRFTISKTSTTVDLKMTSLTSEDTATYFCIKSLHLWGPGTLVTISS VL: ELDMTQTASPVSAAVGGTVTINCQSSQSVYNKNQLFWYQQKPGQPPKLLIYDASTLASGVPSRYKGSGSGTQFTLTISGVQCDDAATYYCLGEYTGNIYTFGEGTEVVVK : ~10 ng/mL
LA-60 (antibody, V domains shown, Rabbit monoclonal IgG; also called mAb LA-60) VH: EQSLESGGGLVQPEGSLTLTCTASGFSFSNSYYMCWVRQAPGKGLEWIGCIYTGSSSGTYYASWAEGRFTISKTPSTTVTLQMTSLTAADTATYFCSRKLTNFNGAYLDLWGPGTLVTVSS VL: ELVLTQTPASVEAAVGGTVTIKCQASQSIYSYLAWYQQKPGQPPKVLIYKASTLASGVPSRFKGSGSGTEFTLTISDLECADAATYYCQNNNGGSDNTFGGGTEVVVK : ~10 ng/mL

From here, focus on the item given below.
## Task So what does the record say about EC50 (read off the curve) for LA-171 (antibody, V domains shown, Rabbit monoclonal IgG) VH: EQSVEESGGRLVTPGGSLTLTCTVSGFSLSSYNMGWVRQAPGKGLEYIGWISLGGNTYYASWVNGRFTISKTSTTVELKISSPTTEDTATYFCARGAGSLYYGDYYFTLWGPGTLVTISS VL: ELVLTQTPSSVSAAVGGTVTIKCQASQSIYSNLAWYQQKPGQPPKLLIYKASNLASGVPSRFKGSGSGTEYTLTISDLECADAATYYCQNYYGINDYGAAFGGGTEVVVK ?
## Result ~10 ng/mL
